# collection of IC50 values tested on USP7 (Homo sapiens, UniProt Q93009)
# Sequence (Q93009 whole entry): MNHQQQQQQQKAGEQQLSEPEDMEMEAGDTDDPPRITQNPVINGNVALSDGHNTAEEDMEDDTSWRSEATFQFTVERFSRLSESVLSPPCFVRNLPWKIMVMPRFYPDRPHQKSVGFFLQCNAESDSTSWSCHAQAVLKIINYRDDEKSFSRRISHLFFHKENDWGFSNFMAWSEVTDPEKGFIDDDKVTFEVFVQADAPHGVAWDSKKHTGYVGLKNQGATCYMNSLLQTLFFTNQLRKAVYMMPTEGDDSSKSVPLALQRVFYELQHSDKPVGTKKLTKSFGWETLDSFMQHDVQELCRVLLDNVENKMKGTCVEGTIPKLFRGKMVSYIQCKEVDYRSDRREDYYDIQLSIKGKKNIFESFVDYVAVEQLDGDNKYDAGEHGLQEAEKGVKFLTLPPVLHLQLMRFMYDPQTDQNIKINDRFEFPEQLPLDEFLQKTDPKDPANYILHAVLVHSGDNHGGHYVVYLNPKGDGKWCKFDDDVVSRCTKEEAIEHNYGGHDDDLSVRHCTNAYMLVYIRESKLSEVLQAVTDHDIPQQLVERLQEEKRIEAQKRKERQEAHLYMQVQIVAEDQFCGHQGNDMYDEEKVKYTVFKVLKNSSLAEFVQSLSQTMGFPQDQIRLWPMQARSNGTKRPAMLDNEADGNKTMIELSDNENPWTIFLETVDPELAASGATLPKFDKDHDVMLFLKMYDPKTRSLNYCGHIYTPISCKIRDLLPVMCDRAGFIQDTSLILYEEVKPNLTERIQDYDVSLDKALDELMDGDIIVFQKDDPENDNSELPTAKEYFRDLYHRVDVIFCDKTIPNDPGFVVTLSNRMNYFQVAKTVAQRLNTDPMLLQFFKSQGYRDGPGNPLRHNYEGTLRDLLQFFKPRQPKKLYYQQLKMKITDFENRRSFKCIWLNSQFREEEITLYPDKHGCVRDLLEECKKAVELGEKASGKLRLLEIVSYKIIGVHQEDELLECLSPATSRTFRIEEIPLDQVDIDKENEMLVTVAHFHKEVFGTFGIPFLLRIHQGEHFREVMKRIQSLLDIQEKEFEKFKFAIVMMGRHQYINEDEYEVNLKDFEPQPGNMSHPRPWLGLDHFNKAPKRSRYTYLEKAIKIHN

Data request: Report value: IC50, system: USP7 (Homo sapiens, UniProt Q93009), molecule: C[C@H]1C[C@@H](N2CCCc3cc(Cl)cc(-c4ccnc5cc(Cn6c(=O)ccn(CC(F)(F)F)c6=O)sc45)c32)CN1 (single isomer, unassigned) [Example 95a]
Data returned: < 10 nM

Data request: Provide IC50, recorded with USP7 (Homo sapiens, UniProt Q93009), of O=C1CCC(=O)N1Cc1cc2nccc(-c3cc(Cl)cc4c3N(C3CO[C@@H](CO)C3)CCO4)c2s1 (single isomer, unassigned) [Example 227c]
Data returned: > 1000 nM

Data request: Report IC50 under test system USP7 (Homo sapiens, UniProt Q93009) for O=C1CCC(=O)N1Cc1cc2ncnc(-c3cc(Cl)cc4c3N([C@H]3CNC5(CCC5)C3)C[C@@H]3C[C@H]43)c2s1 [Example 167c] .
Data returned: 10 to 100 nM

Data request: # lookup: USP7 (Homo sapiens, UniProt Q93009) IC50, key = O=C1OC[C@H](C(F)(F)F)N1Cc1cc2nccc(-c3cc(Cl)cc4c3N([C@@H]3CNC5(CCC5)C3)CCC4)c2s1
Data returned: < 10 nM

Data request: State recorded IC50 with USP7 (Homo sapiens, UniProt Q93009), entry N[C@@H]1CCN(C2CCOc3cc(Cl)cc(-c4ccnc5cc(CN6C(=O)CCC6=O)sc45)c32)C1 (stereo in doubt) [Example 230b] , no comment.
Data returned: > 1000 nM

###

pIC50: −log10 of the molar value.
Recorded pIC50 values (USP7 (Homo sapiens, UniProt Q93009)) are given below.

# Molecule, Measured Result
measured = [
    ("C[C@@H]1CCc2cc(Cl)cc(-c3ccnc4cc(CN5C(=O)CCC5=O)sc34)c2N1[C@@H]1CCNC1 (single isomer, unassigned) [Example 44c]", "7.00 to 8.00"),
    ("O=C1CCC(=O)N1Cc1cc2nccc(-c3cc(Cl)cc4c3N([C@@H]3CNC5(CCC5)C3)C[C@H]3C[C@@H]43)c2s1 [Example 165c]", "> 8.00"),
    ("O=C1CCC(=O)N1Cc1cc2ncnc(-c3cc(Cl)cc4c3N([C@H]3CNC5(CCC5)C3)C[C@H]3C[C@@H]43)c2s1 [Example 167b]", "< 6.00"),
    ("O=C1CCC(=O)N1Cc1cc2nccc(-c3cc(Cl)cc4c3N(CC3CCNCC3)CCC4)c2s1", "6.00 to 7.00"),
    ("Cc1ccc(=O)n(Cc2cc3nccc(-c4cc(Cl)cc5c4N(C4CNC4)CCC5)c3s2)n1", "7.00 to 8.00"),
]

Now for another entry.
Data request: State the measured pIC50 (USP7 (Homo sapiens, UniProt Q93009)) of O=C1CCC(=O)N1Cc1cc2nccc(-c3cc(Cl)cc4c3N([C@@H]3CN(C[C@H](O)C(F)(F)F)C5(CCC5)C3)CCC4)c2s1 (single isomer, unassigned) [Example 143a]
Data returned: 7.00 to 8.00

###

System: USP7 (Homo sapiens, UniProt Q93009)
# key: entry, value: IC50

# Compound, IC50
rows = [
    ("O=C1CCC(=O)N1Cc1cc2nccc(-c3cc(Cl)cc4c3N([C@H]3CO[C@@H](CO)C3)CCO4)c2s1 (single isomer, unassigned) [Example 227a]", "> 1000 nM"),
    ("CCn1c(N(C)C)cc(=O)n(Cc2cc3nccc(-c4cc(C#N)cc5c4N([C@@H]4CNC(C)(C)C4)CCC5)c3s2)c1=O", "< 10 nM"),
    ("O=C1C2CC2C(=O)N1Cc1cc2nccc(-c3cc(Cl)cc4c3N([C@H]3CNC(CO)(CO)C3)CCO4)c2s1 (single isomer, unassigned) [Example 212a]", "< 10 nM"),
]

Data request: Write down the reported IC50 (system: USP7 (Homo sapiens, UniProt Q93009)) of O=C1CCC(=O)N1Cc1cc2nccc(-c3cc(Cl)cc4c3N(C3CNC5(CCC5)C3)C(=O)CO4)c2s1 (single isomer, unassigned) [Example 173a]
Data returned: 10 to 100 nM

Data request: Fetch value of IC50 on USP7 (Homo sapiens, UniProt Q93009) for C[C@]1(CO)C[C@H](N2CCCc3cc(Cl)cc(-c4cc[n+]([O-])c5cc(CN6C(=O)CCC6=O)sc45)c32)CN1 .
Data returned: < 10 nM

Data request: Report IC50 under test system USP7 (Homo sapiens, UniProt Q93009) for C[C@]1(CO)C[C@H](N2C(=O)COc3cc(C#N)cc(-c4ccnc5cc(Cn6ncc(C7(C(F)(F)F)CC7)cc6=O)sc45)c32)CN1 .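 Also: fluorescence intensity readout of USP7 enzymatic activity, reaction incubated 90 min at room temperature.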
Data returned: < 10 nM
